# Tested on: HL-60(TB) leukemia
# Test description: NCI tumour cell line growth inhibition, 48 h; in the data active means GI50 below about 0.43 µM; inactive means the rest
Outcome field: choose from yes (1) (active), no (0) (inactive)

Request: # fetch the recorded call for `CC/C(=C(/CC)c1ccc(O)cc1)c1ccc(O)cc1` here
Result: no (0)

Request: # fetch the recorded call for Cc1ccnc(NC(c2ccccc2)c2ccc3cccnc3c2O)c1 (stereo unspecified) here
Result: no (0)

Request: # fetch the recorded call for `CCOC(=O)Nc1cc(-c2ccc(C)c(NS(C)(=O)=O)c2)nn2c(C)nnc12` here
Result: yes (1)

---

# Tested on: COLO 205 colon
# Test description: NCI tumour cell line growth inhibition, 48 h; in the data active means GI50 below about 0.43 µM; inactive means the rest
Outcome field: choose from true = active, false = inactive

O=[N+]([O-])c1cccc([I+]c2ccccc2)c1; false
O=C(Nc1nc(-c2ccccc2Cl)cs1)c1cc(-c2ccc(Cl)cc2)nc2ccc(Cl)cc12; false
ClCc1ccc(-c2ccc(Cn3cnc4c(Cl)ncnc43)cc2)cc1; false
COc1cc(/C=C2\CC3C4CCC5=CC(=O)CC[C@]5(C)C4CC[C@]3(C)C2=O)ccc1OCCN1CCCCC1 (stereo partly specified); false
C1C[S][Ge]2([S]CCS1)[S]CCSCC[S]2; false

Read the next record carefully.
Request: # fetch the recorded call for `Cn1c(=O)c(-c2c(Cl)cccc2Cl)cc2cnc(Nc3ccc(I)cc3)nc21` here
Result: true
